molecular target: T1, Soluble IGF-1R (R&D Systems, Cat. # 391-GR/CF); recombinant human IGF-1R (human, UniProt P08069 31-935); assay: phage ELISA vs milk
T1 construct: extracellular domain; Eu3+-labelled in the TR-FRET assays; also called sIGF-1R; rhIGF-1R
Entries and their Ratio over Background

>  <binder>
SSIGGGFHENFYDWFSRQLSQSPPLK [N2CA-4-F7-IGFR]

>  <readout.units>
fold

>  <Ratio over Background>
3.2

$$$$
>  <binder>
VNQSGSIHENFYDWFERQVSHQRGVR [H2CA-4-F1O-IGFR]

>  <readout.units>
fold

>  <Ratio over Background>
5.7

$$$$
>  <binder>
VGTVAGFYDAIAQLVARASRV [20E2A-3-C7-IGFR]

>  <readout.units>
fold

>  <Ratio over Background>
5.4

$$$$
>  <binder>
LSVALSFYDALGQLVAGEGRW [20E2A-3-A12-IGFR]

>  <readout.units>
fold

>  <Ratio over Background>
4.3

$$$$

The values you see were collected from patent US20030236190A1.
